Provide the reported IC50 of each item.
target desc: HLA A*3201 (Homo sapiens, UniProt P04439, A270S/D101S/D185E/E176V/E277Q/F133L/G103R/G107R/G231S/H175R/I121M/I218V/I322F/K168Q/L105A/L300P/L318F/M331R/P208A/P217A/Q94H/R106L/R138Q/S129P/T104I/T323A/T345S/V100E/V321M/V358M)
method summary: biochemical
Where a SMILES comes first, the peptide text is derived from it.
Give bare numbers, in nM.

compound | u | IC50
CC(C)C[C@H](NC(=O)[C@@H](N)CC(C)C)C(=O)N[C@@H](Cc1ccc(O)cc1)C(=O)N[C@H](C(=O)N[C@@H](C)C(=O)N[C@@H](CC(N)=O)C(=O)N[C@@H](Cc1ccccc1)C(=O)N[C@H](C(=O)N[C@@H](Cc1ccccc1)C(=O)O)[C@@H](C)O)[C@@H](C)O [3102.0873] (H-LLYTANFTF-OH) | nM | 6.7

Record IC50 per entry; entries follow.
1. CC[C@H](C)[C@H](N)C(=O)N[C@H](C(=O)N[C@H](C(=O)N[C@@H](Cc1ccc(O)cc1)C(=O)N[C@@H](Cc1ccccc1)C(=O)N[C@@H](CCCNC(=N)N)C(=O)N[C@@H](CCCNC(=N)N)C(=O)N[C@H](C(=O)N[C@H](C(=O)O)[C@@H](C)CC)[C@@H](C)O)C(C)C)[C@@H](C)O [3102.0382] (H-ITVYFRRTI-OH)
2. CC[C@H](C)[C@H](NC(=O)[C@H](Cc1c[nH]cn1)NC(=O)[C@@H](NC(=O)[C@H](CCSC)NC(=O)[C@H](CCSC)NC(=O)[C@H](CCCCN)NC(=O)[C@H](CCSC)NC(=O)[C@@H](NC(=O)[C@@H](N)CCSC)[C@@H](C)O)C(C)C)C(=O)O [3102.0378] (H-MTMKMMVHI-OH)

RESULT:
26
4.8

====

target desc: HLA B*1503 (Homo sapiens, UniProt P01889, A329T/A93T/A95T/C349S/D201E/D98Y/E187L/E204Q/K202T/N87E/Q94N/R155S/R180L/S121R/S35A/V306I/V36M/Y140S/Y91S)
method summary: biochemical
Where a SMILES comes first, the peptide text is derived from it.
readout name: pIC50
Give bare numbers, as −log10 of the molar value.

compound | pIC50
CC[C@H](C)[C@H](NC(=O)[C@@H](NC(=O)[C@H](CCSC)NC(=O)[C@@H](N)CO)C(C)C)C(=O)N[C@@H](CO)C(=O)N[C@@H](CC(C)C)C(=O)N[C@@H](CC(C)C)C(=O)N[C@@H](CO)C(=O)N[C@@H](CCSC)C(=O)O [3102.1140] (H-SMVISLLSM-OH) | 8.10
CC(C)C[C@H](NC(=O)[C@H](Cc1ccccc1)NC(=O)[C@@H](NC(=O)[C@H](CCCCN)NC(=O)[C@H](CO)NC(=O)[C@@H](N)CO)C(C)C)C(=O)N[C@@H](CCCCN)C(=O)N[C@@H](C)C(=O)N[C@@H](Cc1ccccc1)C(=O)O [3102.0662] (H-SSKVFLKAF-OH) | 9.43
CC[C@H](C)[C@H](NC(=O)[C@@H](N)CCCCN)C(=O)N[C@@H](Cc1ccc(O)cc1)C(=O)N[C@@H](CC(N)=O)C(=O)N[C@H](C(=O)N[C@H](C(=O)N[C@@H](CC(N)=O)C(=O)N1CCC[C@H]1C(=O)N[C@@H](Cc1ccccc1)C(=O)O)[C@@H](C)O)C(C)C [3102.1223] (H-KIYNVTNPF-OH) | 8.12

Here is the next item to consider.
QUERY: Note down pIC50 recorded for CC(C)[C@H](N)C(=O)N[C@@H](CCC(=O)O)C(=O)N[C@H](C(=O)N[C@@H](CCC(=O)O)C(=O)N1CCC[C@H]1C(=O)NCC(=O)N[C@@H](CO)C(=O)N[C@@H](CO)C(=O)N[C@@H](Cc1ccccc1)C(=O)O)C(C)C [3102.1119] (H-VEVEPGSSF-OH)
RESULT: 8.77
